Test system: LOX IMVI melanoma
procedure-details: NCI-60 one-dose screen, 48 h
reported-conditions: 10 µM unless noted
Method: Growth inhibition of the LOX IMVI human tumor cell line is measured as a screen for anti-cancer activity. Cells are grown in 96 well plates and exposed to the test compound for 48 hours. Compounds are tested at a single concentration, which is 10^-5 M for most compounds. The reported endpoint is percent growth (GI% or GIPRCNT), where numbers from 0 - 100% represent growth inhibition, and numbers from -100% - 0 represent cell death. For example, a value of 40 represents 60% growth inhibition. […]
This is part of a sample that, as a whole, favours compounds with a hit. Of some 83,000 tested, about 20% had one in any assay. The source made the active and inactive calls. Rule for the calls: active = growth percent below 10; inactive = the rest.
The reply should name one outcome from yes (active), no (inactive)

Worked set:
Task: Query: recorded result category for CCOC(=O)c1cc2c(n1Cc1ccccc1)-c1oncc1CCC2 in this test
Result: no

Task: Answer briefly: the call reported for CC(C)[C@H](NC(=O)Cn1cc(C(=O)O)nn1)C(=O)O in this assay.
Result: no

Task: Give the logged outcome of this assay for the following molecule: S=C1CCCC(=S)N1
Result: no

Task: Hello, I am checking results. What call was entered for NC(=O)CSc1nc(-c2ccc(F)cc2)cc(-c2ccco2)n1 ?
Result: no

Task: For Nc1no[n+]([O-])c1-c1nnc2c(n1)-c1ccccc1C2=O , what call appears in the results of this test?
Result: no

New cases:
Task: Tell me the recorded outcome of this test for CN(C)c1ccc(/C=C/c2ccnc3c(O)cccc23)cc1 .
Result: no

Task: Identify the outcome logged in this assay for the molecule shown: Cc1cccc2c(=O)c3c(sc12)c(NCCCNCCO)nc1ccccc13
Result: yes

Task: Kindly provide the recorded test outcome for the following molecule: NCCNc1nc2ccc(F)cc2c2c(=O)c3cc(F)ccc3sc12
Result: yes

Task: What call does the record list for O=[N+]([O-])c1cc2c(ccc3occc32)o1 ?
Result: yes

Task: For O=C1Nc2ccccc2/C1=C/c1cccs1 , what call appears in the results of this test?
Result: no

Task: Call for entry Oc1c(C(Nc2ccccn2)c2cccc(Oc3ccccc3)c2)ccc2cccnc12 (stereo not drawn) :
Result: yes

Task: Recorded test outcome, item COc1cccc(C(=O)NC(c2ccc(C)cc2)c2cc(Cl)c3cccnc3c2O)c1 (stereo not drawn)
Result: yes

* * *

A collection of compounds and their measured growth
Tested on: NCI-H23 lung
procedure-details: NCI-60 one-dose screen, 48 h (100 = growth as untreated, 0 = no growth, -100 = all killed)
reported-conditions: 10 µM unless noted
The panel holds about 83,000 compounds, 20% with a hit somewhere; the sample as a whole holds those more often.
Write the number in % without appending the unit.

Example cases with answers are listed next.
Task: Bench note: what growth did O=C(c1nc2ccccc2[nH]1)C1C(c2ccc(F)cc2)C2CC3CCCCC3N2[C@@]12C(=O)Nc1ccc(Cl)cc12 (stereo not given in full) show?
Result: 57.2

Task: # input compound: Cc1ccc(C)c(-c2csc(Nc3ccc(C)c(C)c3)n2)c1 ; wanted: its growth
Result: 57

Task: Requested field: growth. Item: O=C(c1ccccc1)N(C(=S)NCCc1ccc(Cl)cc1)c1ccc(Cl)cc1
Result: 74.7

Task: Look at this compound and give its reported growth. CCCCc1ccc(NS(=O)(=O)c2cc3c4c(c2)CCN4C(=O)CC3)cc1
Result: 21.2

Next:
Task: Param item = O=C(CCc1nnc2sc(COc3ccccc3)nn12)c1nc2ncccc2[nH]1 ; retrieve measured growth.
Result: 85.4
